This collection of values is drawn from PubChem BioAssay (NCI).

# Test system: OVCAR-4 ovarian
# PROTOCOL_DETAILS: NCI-60 one-dose screen, 48 h (100 = growth as untreated, 0 = no growth, -100 = all killed)
# REPORTED_CONDITIONS: 10 µM unless noted
Compounds without any hit were thinned out: in the full panel of roughly 83,000, 20% have a hit.
Response field class: string, computed from recorded growth by ranges low: < 60%; medium: ≥ 60% and < 90%; high: ≥ 90%

Answered cases to consult:
- MOLECULE: "COc1cc(/C=C/c2cc(/C=C/c3ccc(O)c(OC)c3)n(-c3ccc(Cl)cc3)c(=O)n2)ccc1O"
  TESTED_ON: "OVCAR-4 ovarian"
  CAT: "medium"
- MOLECULE: "CC(=O)OCCCCCCn1c2ccccc2c2c3c(c4c5ccccc5n(C)c4c21)C(=O)N(O)C3=O"
  TESTED_ON: "OVCAR-4 ovarian"
  CAT: "medium"
- MOLECULE: "COc1cc(-c2cc(-c3nc4ccccc4[nH]3)[nH]n2)cc(OC)c1OC"
  TESTED_ON: "OVCAR-4 ovarian"
  CAT: "low"
- MOLECULE: "COc1ccc(C(=O)c2ccc(C)cc2)c(OC)c1OC"
  TESTED_ON: "OVCAR-4 ovarian"
  CAT: "high"
- MOLECULE: "CN1CCN(c2nc(-c3csc(-c4cccs4)n3)cc3ccccc23)CC1"
  TESTED_ON: "OVCAR-4 ovarian"
  CAT: "low"

Field: class (growth) — entry: `COc1cc(-c2cc3ncccc3c3nc(N)c4cccnc4c23)cc(OC)c1OC`
low

Exercise: read the entry `C/C(=N/NC(N)=S)C(=O)O` and state which class it falls under.
medium

State the band of `O=Cc1nc2ccccc2[nH]1`
high

For `COc1ccc(-n2c(/C=C/c3ccc(O)c(OC)c3)cc(/C=C/c3ccc(O)c(OC)c3)nc2=O)cc1` , which growth bin applies?
medium

Exercise: read the entry COc1ccc(/C=C/C(=O)NCC(C)O)cc1 (configuration not stated) and state which class it falls under.
high
